experiment-description: Cytotoxicity against human HepG2 cells assessed as reduction in cell viability after 2 days by Celltiter-Glo reagent based assay
protocol-conditions: read-out: LD50
measured-endpoint: CC50 at 48 h

In the examples that follow, each entry is paired with its recorded CC50 at 48 h.
[[record]]
substance_smiles = "C=CC1=C(C(=O)O)N2C(=O)[C@@H](NC(=O)/C(=N\\O)c3csc(N)n3)[C@H]2SC1"
measured_endpoint = "CC50 at 48 h"
result = "> 100 µg/mL"

[[record]]
substance_smiles = "C#CCOC(=O)C1=C(C)CS[C@@H]2[C@H](NC(=O)CCc3ccccc3)C(=O)N12"
measured_endpoint = "CC50 at 48 h"
result = "> 100 µg/mL"

[[record]]
substance_smiles = "CC1=C(c2nc(C)no2)N2C(=O)[C@@H](NC(=O)OCC(Cl)(Cl)Cl)[C@H]2SC1"
measured_endpoint = "CC50 at 48 h"
result = "> 100 µg/mL"

[[record]]
substance_smiles = "CCCc1noc(C2=C(C)CS[C@@H]3[C@H](NC(=O)c4ccc(Cl)cc4)C(=O)N23)n1"
measured_endpoint = "CC50 at 48 h"
result = "> 100 µg/mL"

[[record]]
substance_smiles = "CC1=C(c2nc(C)no2)N2C(=O)[C@@H](NC(=O)Cc3ccc(Cl)c(Cl)c3)[C@H]2SC1"
measured_endpoint = "CC50 at 48 h"
result = "18.9 µg/mL"


In: // lookup CC50 at 48 h for COC(=O)C1=C(C)CS[C@@H]2[C@H](NC(=O)CCc3ccccc3)C(=O)N12
Out: > 100 µg/mL

In: # get_value(readout='CC50 at 48 h', item= CC1=C(c2nc(C)no2)N2C(=O)[C@@H](NC(=O)OCC(C)(C)C)[C@H]2SC1 )
Out: > 100 µg/mL

In: State the recorded CC50 at 48 h for this entry: CCCCOc1ccc(CCC(=O)N[C@@H]2C(=O)N3C(c4nc(CCC)no4)=C(C)CS[C@H]23)cc1
Out: > 100 µg/mL

In: Look up CC50 at 48 h for this molecule: CCCc1noc(C2=C(C)CS[C@@H]3[C@H](NC(=O)CCc4ccccc4Cl)C(=O)N23)n1
Out: > 100 µg/mL

In: Endpoint output: CC50 at 48 h of COC(=O)C1=C(C)CS[C@@H]2[C@H](NC(=O)COc3ccccc3)C(=O)N12 . Value?
Out: > 100 µg/mL

In: Consider the molecule shown here: CCOC(=O)C1=C(C)CS[C@@H]2[C@H](NC(=O)COc3ccc(OC)cc3)C(=O)N12 What is its recorded CC50 at 48 h?
Out: > 100 µg/mL

In: I would be grateful if you could share the reported CC50 at 48 h for CC1=C(c2nc(C)no2)N2C(=O)[C@@H](NC(=O)COc3ccc(Cl)cc3)[C@H]2SC1 .
Out: 19.5 µg/mL

In: Sample CC1=C(c2nc(C)no2)N2C(=O)[C@@H](NC(=O)Cc3ccc(C)cc3)[C@H]2SC1 — what was its CC50 at 48 h?
Out: > 100 µg/mL

---

Documented t1/2 across a set of molecules
experiment-description: Half life in human plasma at 1 ug/ml by LC-MS analysis
Assay type: ADME, cell-free

[[record]]
substance_smiles = "CCCOC(=O)C1=C(C)CS[C@@H]2[C@H](NC(=O)COc3ccccc3)C(=O)N12"
result = "2 to 3 h"


Turning now to a further record.
In: Quick one: t1/2 for CC1=C(c2nc(C)no2)N2C(=O)[C@@H](NC(=O)COc3ccccc3)[C@H]2SC1 ?
Out: 2 to 3 h

---

experiment-description: Stability of compound in pH 7 solution assessed as parent compound remaining incubated for 4 hrs at 37 degC
Assay type: physicochemical
protocol-conditions: pH 7 solution, pH 7; read-out: Stability
measured-endpoint: remaining at 4 h (%)
Response body: numeric value in %, unit text excluded.

In: What remaining at 4 h value was documented for this molecule, CC1=C(c2nc(C)no2)N2C(=O)[C@@H](NC(=O)COc3ccccc3)[C@H]2SC1 ?
Out: 101

---

Examples of compounds with documented Stability follow.
experiment-description: Stability in pH 5 non-replicating medium containing 0.5 mM NaNO2 assessed as parent compound remaining at 5 to 50 ug/ml at 37 degC measured every 12 hrs up to 144 hrs by LC-MS analysis
Type: physicochemical
protocol-conditions: buffer

Worked examples, 2 compounds total:
[[record]]
substance_smiles = "CCCOC(=O)C1=C(C)CS[C@@H]2[C@H](NC(=O)COc3ccccc3)C(=O)N12"
result = "100%"

[[record]]
substance_smiles = "CCCN[C@@H]1C(=O)N2C(C(=O)OCCC)=C(C)CS[C@H]12"
result = "40%"


In: Sample CCCOC(=O)N[C@@H]1C(=O)N2C(C(=O)OCCC)=C(C)CS[C@H]12 — what was its Stability?
Out: 100%

---

experiment-description: Solubility of compound in pH 7.4 solution measured after shaking for 4 hrs
Type: physicochemical
measured-endpoint: solubility at 4 h

[[record]]
substance_smiles = "CC1=C(c2nc(C)no2)N2C(=O)[C@@H](NC(=O)COc3ccccc3)[C@H]2SC1"
result = "83.7 to 84 µM"


For the next question, use this compound.
In: Suppose we examine the compound CCCOC(=O)C1=C(C)CS[C@@H]2[C@H](NC(=O)COc3ccccc3)C(=O)N12 ; what solubility at 4 h value has been reported?
Out: 22.7 to 23 µM

---

experiment-description: Cytotoxicity against human HepG2 cells assessed as reduction in cell viability after 2 days by Celltiter-Glo reagent based assay
protocol-conditions: read-out: LD50
measured-endpoint: CC50 at 48 h

[[record]]
compound = "CCCc1noc(C2=C(C)CS[C@@H]3[C@H](NC(=O)COc4ccc(Cl)cc4)C(=O)N23)n1"
result = "64.3 µg/mL"

[[record]]
compound = "CC1=C(C(=O)O)N2C(=O)[C@@H](NC(=O)Cc3ccc(Cl)cc3)[C@H]2SC1"
result = "> 100 µg/mL"

[[record]]
compound = "COC(=O)C1=C(C)CS[C@@H]2[C@H](NC(=O)COc3ccc(OC)cc3)C(=O)N12"
result = "> 100 µg/mL"

[[record]]
compound = "CCCCOC(=O)C1C(C)=CS[C@@H]2[C@H](NC(=O)COc3ccccc3)C(=O)N12 (some centres undefined)"
result = "61.8 µg/mL"

[[record]]
compound = "CC1=C(C(=O)O)N2C(=O)[C@@H](NC(=O)c3ccc(Cl)cc3)[C@H]2SC1"
result = "> 100 µg/mL"


In: Given the compound CCCc1noc(C2=C(C)CS[C@@H]3[C@H](NC(=O)Cc4ccc(OC)cc4)C(=O)N23)n1 , what is its reported CC50 at 48 h?
Out: 72.4 µg/mL

In: Reported CC50 at 48 h, compound CCCOC(=O)C1=C(C)CS[C@@H]2[C@H](NC(=O)[C@H](N)c3ccccc3)C(=O)N12 : ____
Out: > 100 µg/mL

In: What value of measured CC50 at 48 h is listed for CC(=O)OCC1=C(C(=O)O)N2C(=O)[C@@H](NC(=O)Cc3cccs3)[C@H]2SC1 ?
Out: > 100 µg/mL

---

experiment-description: Cytotoxicity against human HepG2 cells assessed as reduction in cell viability after 2 days by Celltiter-Glo reagent based assay
protocol-conditions: read-out: LD50
measured-endpoint: CC50 at 48 h

[[record]]
compound = "CCCOC(=O)C1=C(C)CS[C@@H]2[C@H](NC(=O)COc3ccc(Cl)cc3)C(=O)N12"
result = "49.2 µg/mL"


In: Give its CC50 at 48 h value. Item: CCCc1noc(C2=C(C)CS[C@@H]3[C@H](NC(=O)CCc4ccc(Cl)cc4)C(=O)N23)n1
Out: > 100 µg/mL

In: Consider the compound shown here: COc1ccc(CC(=O)N[C@@H]2C(=O)N3C(c4nc(C)no4)=C(C)CS[C@H]23)cc1 What is its recorded CC50 at 48 h?
Out: > 100 µg/mL

In: Returns the measured CC50 at 48 h for the input compound. Input: CCCCOC(=O)C1=C(C)CS[C@@H]2[C@H](NC(=O)COc3ccc(Cl)cc3)C(=O)N12
Out: > 100 µg/mL

In: State the recorded CC50 at 48 h for this entry: CCOC(=O)C1=C(C)CS[C@@H]2[C@H](NC(=O)COc3ccccc3)C(=O)N12
Out: > 100 µg/mL

In: # input compound: CCOC(=O)C1=C(C)CS[C@@H]2[C@H](NC(=O)CCc3ccccc3)C(=O)N12 ; wanted: its CC50 at 48 h
Out: > 100 µg/mL

---

experiment-description: Cytotoxicity against human HepG2 cells assessed as reduction in cell viability after 2 days by Celltiter-Glo reagent based assay
protocol-conditions: read-out: LD50
Recorded CC50 at 48 h for the following molecules

In: Query: CC50 at 48 h; subject: CCCOC(=O)C1=C(C)CS[C@@H]2[C@H](NC(=O)COc3ccccc3)C(=O)N12
Out: 75.7 to 100 µg/mL

In: Looking for the measured CC50 at 48 h of CCCc1noc(C2=C(C)CS[C@@H]3[C@H](NC(=O)CCc4ccc(F)cc4)C(=O)N23)n1 , can you help?
Out: > 100 µg/mL

In: Field request: CC50 at 48 h | item: COc1ccc(CCC(=O)N[C@@H]2C(=O)N3C(C(=O)OCc4ccccc4)=C(C)CS[C@H]23)cc1
Out: > 100 µg/mL

In: What CC50 at 48 h value was documented for this molecule, CCCOC(=O)C1C(C)=CS[C@@H]2[C@H](NC(=O)CCc3ccc(OC)cc3)C(=O)N12 (stereo not given in full) ?
Out: > 100 µg/mL

In: // returns reported CC50 at 48 h for input C#CCNC(=O)C1=C(C)CS[C@@H]2[C@H](NC(=O)COc3ccccc3)C(=O)N12
Out: > 100 µg/mL

In: What measured CC50 at 48 h goes with CCOC(=O)C1=C(C)CS[C@@H]2[C@H](NC(=O)COc3ccc(Cl)cc3)C(=O)N12 ?
Out: 41 µg/mL

In: Form field: reported CC50 at 48 h of CCCCOc1ccc(CCC(=O)N[C@@H]2C(=O)N3C(c4nc(C)no4)=C(C)CS[C@H]23)cc1
Out: 74.4 µg/mL

In: # query: CC50 at 48 h of entry CCCc1noc(C2=C(C)CS[C@@H]3[C@H](NC(=O)Cc4ccccc4)C(=O)N23)n1
Out: > 100 µg/mL

In: Entry under review: CC1=C(C(=O)O)N2C(=O)[C@@H](NC(=O)CCc3ccc(Br)cc3)[C@H]2SC1 . Reported CC50 at 48 h?
Out: > 100 µg/mL

In: Requested read-out: CC50 at 48 h. Entry: CCCOC(=O)C1=C(C)CS[C@@H]2[C@H](NC(=O)CCc3ccccc3)C(=O)N12
Out: > 100 µg/mL
